assay: ATG_E_Box_CIS: Attagene CIS-FACTORIAL HepG2 Assay for human Enhancer Box (E-box) (AID 2282936); details: HepG2 E-box cis-reporter transcription, actives raise or lower the signal
Active and inactive are the calls of the source. How the source made its calls: active means hit-call score of the fitted dose curve at least 0.9, where 1 is the maximum; inactive means score below 0.9.
Possible outcomes: active, inactive

INSERT INTO measurements (compound, assigned_category) VALUES
  ('CCCCC(CC)COC(C)=O (centres undefined)', 'inactive'),
  ('CCCCN(CCCC)C(=O)N(CCCC)CCCC', 'inactive'),
  ('O=C(O)CNc1ccccc1', 'inactive'),
  ('IC(I)I', 'inactive'),
  ('COC(C)(C)CCCC(C)CC=O (centres undefined)', 'inactive'),
  ('COc1ccc(CCC(C)=O)cc1', 'inactive'),
  ('Nc1ccccc1[N+](=O)[O-]', 'inactive'),
  ('CCc1cc(C(C)(C)C)c(O)c(C(C)(C)C)c1', 'active'),
  ('OCC(O)c1ccccc1 (centres undefined)', 'inactive'),
  ('CC(=O)C1(C)CC2=C(CCCC2(C)C)CC1C (centres undefined)', 'active'),
  ('CCN(CCN)c1cccc(C)c1', 'inactive'),
  ('Nc1ccc2cc(S(=O)(=O)O)cc(O)c2c1N=Nc1ccccc1C(F)(F)F', 'inactive'),
  ('C[Si]1(C)O[Si](C)(C)O[Si](C)(C)O1', 'inactive'),
  ('CCC(=O)O[C@@H]1C[C@H]2CC[C@]1(C)C2(C)C', 'inactive'),
  ('CCCCCCCCCCCC(=O)OC[C@@H](O)[C@H]1OC[C@H](O)[C@H]1O', 'inactive'),
  ('C=CCCCCCCCCCC', 'inactive'),
  ('c1ccc2cc(Nc3ccc(Nc4ccc5ccccc5c4)cc3)ccc2c1', 'inactive'),
  ('CCCCCCCCCCCCCC(=O)OCC(O)CO (centres undefined)', 'inactive'),
  ('C=C(C#N)C(=O)OCC', 'inactive'),
  ('CS(=O)(=O)c1ccc(Cl)cc1', 'inactive'),
  ('CC(C)(C)CC(C)(C)c1ccc(OCCOCC[N+](C)(C)Cc2ccccc2)cc1', 'active'),
  ('O=C(O)CCCCCCCCC(=O)O', 'inactive'),
  ('OCC#CCO', 'inactive'),
  ('CCCCCCC(CO)CCCC (centres undefined)', 'inactive'),
  ('COc1cc(Cl)c(OC)cc1N', 'inactive'),
  ('C=C(C)[C@@H]1CC=C(C)C(=O)C1', 'inactive'),
  ('C1CCCCC1', 'inactive'),
  ('CC(C)CCOC(=O)c1ccccc1', 'inactive'),
  ('CCN(CC)C(=O)N(CC)CC', 'inactive');

###

experiment: ATG_VDRE_CIS: Attagene CIS-FACTORIAL HepG2 Assay for human Vitamin D Receptor Element (VDRE) (AID 2282968); details: HepG2 VDRE cis-reporter transcription, actives raise or lower the signal
The source made the active and inactive calls. Rule for the calls: active = hit-call score of the fitted dose curve at least 0.9, where 1 is the maximum; inactive = score below 0.9.
Possible outcomes: 1.0 (active), 0.0 (inactive)

INSERT INTO results (compound, assigned_category) VALUES
  ('OCCCCC(O)CO (configuration not stated)', 0.0),
  ('CCOC(=O)c1ccc(N)cc1', 0.0),
  ('COc1cc(C(C)C)ccc1C', 0.0),
  ('C1CCOC1', 0.0),
  ('Cc1ccc(S(=O)(=O)Oc2ccc(N=Nc3ccc(-c4ccc(N=Nc5c(O)ccc6cc(S(=O)(=O)O)cc(S(=O)(=O)O)c56)c(C)c4)cc3C)cc2)cc1', 1.0),
  ('COc1ccc(CCC(C)=O)cc1', 0.0),
  ('CC(C)(C)CC(C)(C)c1ccc(OCCOCC[N+](C)(C)Cc2ccccc2)cc1', 0.0),
  ('CCCCCCCCN1CCCC1=O', 0.0),
  ('CCCCCCCCc1ccc(S(=O)(=O)O)cc1', 0.0),
  ('N[C@@H](Cc1cc(I)c(Oc2cc(I)c(O)c(I)c2)c(I)c1)C(=O)O', 1.0),
  ('CCNCCO', 0.0),
  ('CC=Cc1ccc(OC)c(OC)c1', 0.0),
  ('CCCCCCC(O)CCCCCCCCCCC(=O)O (configuration not stated)', 0.0),
  ('CCCCC(CC)COC(C)=O (configuration not stated)', 0.0),
  ('O=[N+]([O-])c1cccc(Cl)c1', 0.0),
  ('CCCCCCOC(=O)CCC', 0.0),
  ('c1ccc2cc(Nc3ccc(Nc4ccc5ccccc5c4)cc3)ccc2c1', 0.0),
  ('CCc1cc(C(C)(C)C)c(O)c(C(C)(C)C)c1', 0.0),
  ('CC(C)(N=C=O)c1cccc(C(C)(C)N=C=O)c1', 0.0),
  ('C=CCCC(=O)/C=C/C1C(C)=CCCC1(C)C (configuration not stated)', 1.0),
  ('C[Si](C)(C)O[Si](C)(C)C', 0.0),
  ('CC(C)CCOC(=O)c1ccccc1', 0.0),
  ('CC(=O)C1(C)CC2=C(CCCC2(C)C)CC1C (configuration not stated)', 0.0),
  ('CC(C)NCC(O)COc1ccc(CC(N)=O)cc1 (configuration not stated)', 0.0),
  ('Cc1cccc(Nc2ccccc2)c1', 1.0),
  ('COc1ccc(CCN2CCC(Nc3nc4ccccc4n3Cc3ccc(F)cc3)CC2)cc1', 0.0),
  ('C=C(C)[C@@H]1CC=C(C)C(=O)C1', 0.0),
  ('CS(C)=O', 0.0),
  ('CC(=O)O[C@@H]1CC2CCC1(C)C2(C)C (some centres not stated)', 0.0),
  ('[O-]n1ccccc1=S.[O-]n1ccccc1=S.[Zn+2]', 0.0),
  ('CCCCCCCCCCCC(=O)OC[C@@H](O)[C@H]1OC[C@H](O)[C@H]1O', 0.0),
  ('CC=Cc1ccc(OCC)c(O)c1', 0.0),
  ('CCC1(c2ccccc2)C(=O)NCNC1=O', 0.0),
  ('CCCCCC(=O)CC', 0.0),
  ('N#Cc1ccc(CC(=O)c2cccc(C(F)(F)F)c2)cc1', 1.0),
  ('CC(C)CCCCCCc1ccc(OCCOCCO)cc1', 0.0),
  ('CCOC(=O)CC(C)O (configuration not stated)', 0.0);
